Record form. Attribute: pIC50. Fill in for each entry.
- METHOD DESCRIPTION: Antiproliferative activity against human MOLM16 cells assessed as reduction in cell viability incubated for 4 days by cell-titer glo luminescent assay
- Format: functional, cell-based
- CONDITION PARAMETERS: MOLM16, 96 h
Convention used: pIC50 is expressed as -log10 of the molar concentration.

[Q] Please list pIC50 recorded for the molecule NC(=O)CC[C@H](NC(=O)[C@@H]1CC[C@@H]2CCN(C(=O)N3CCC(CCC#Cc4cccc5c4CN(C4CCC(=O)NC4=O)C5=O)CC3)C[C@H](NC(=O)c3cc4cc(C(F)(F)P(=O)(O)O)ccc4[nH]3)C(=O)N21)C(=O)NC(c1ccccc1)c1ccccc1 (some centres undefined)
[A] 7.00

[Q] Fill in pIC50 for record NC(=O)CC[C@H](NC(=O)[C@@H]1CC[C@@H]2CCN(C(=O)CCCCCCCc3cccc4c3CN(C3CCC(=O)NC3=O)C4=O)C[C@H](NC(=O)c3cc4cc(C(F)(F)P(=O)(O)O)ccc4[nH]3)C(=O)N21)C(=O)NC(c1ccccc1)c1ccccc1 (some centres undefined)
[A] 7.20

[Q] Provide measured pIC50 value, entry: NC(=O)CC[C@H](NC(=O)[C@@H]1CC[C@@H]2CCN(CCCCCCC#Cc3cccc4c3CN(C3CCC(=O)NC3=O)C4=O)C[C@H](NC(=O)c3cc4cc(C(F)(F)P(=O)(O)O)ccc4[nH]3)C(=O)N21)C(=O)NC(c1ccccc1)c1ccccc1 (some centres undefined)
[A] 6.83

[Q] # return recorded pIC50 for input NC(=O)CC[C@H](NC(=O)[C@@H]1CC[C@@H]2CCN(C(=O)CCCCC#Cc3cccc4c3CN(C3CCC(=O)NC3=O)C4=O)C[C@H](NC(=O)c3cc4cc(C(F)(F)P(=O)(O)O)ccc4[nH]3)C(=O)N21)C(=O)NC(c1ccccc1)c1ccccc1 (some centres undefined)
[A] 7.11
